Listing: IC50 at 3 days of selected molecules
- test_details: Cytotoxicity against human HepG2 cells assessed as cell growth inhibition incubated for 3 days by CellTiter-Glo reagent-based luminescence assay
- Format: toxicity

molecule	IC50 at 3 days
Cc1cccc(NC(=O)c2sc3nc(-c4cccs4)cc(C(F)(F)F)c3c2N)c1C	> 100 µM

Query block: What does the record list as IC50 at 3 days for "COc1ccc(-c2ccc3c(N)c(C(=O)N4CCOCC4)sc3n2)cc1OC" ?
Result block: > 100 µM

Query block: What does the record list as IC50 at 3 days for "Nc1c(C(=O)N2CC(F)(F)C2)sc2ncccc12" ?
Result block: > 100 µM

Query block: What does the record list as IC50 at 3 days for CCC(NC(=O)c1sc2nc(-c3ccc(OC)cc3)cc(C(F)(F)F)c2c1N)c1ccccc1 (stereo unspecified) ?
Result block: > 100 µM

Query block: What does the record list as IC50 at 3 days for "Nc1c(C(=O)N2CCOCC2)sc2ncccc12" ?
Result block: > 100 µM

Query block: What does the record list as IC50 at 3 days for "COc1ccc(-c2cc(C(F)(F)F)c3c(N)c(C(=O)NC4CC5(C4)CN(C(=O)OC(C)(C)C)C5)sc3n2)cc1" ?
Result block: 12 µM

---

- test_details: Selectivity index, ratio of IC50 for cytotoxicity against human HepG2 cells to IC90 for antibacterial activity against wild type Mycobacterium tuberculosis H37Rv-LP DREAM8 strain expressing codon-optimized DsRed
- Format: toxicity, cell-based
outcome_measure: selectivity ratio

compound	outcome_measure	data_value
COc1ccc(-c2cc(C(F)(F)F)c3c(N)c(C(=O)Nc4cc(C)cc(C)c4)sc3n2)cc1	selectivity ratio	< 1
COc1ccc(-c2cc(C(F)(F)F)c3c(N)c(C(=O)NCc4ccccc4C)sc3n2)cc1	selectivity ratio	10
COc1ccc(-c2cc(C(F)(F)F)c3c(N)c(C(=O)NC(C)C4CCCCC4)sc3n2)cc1 (centres undefined)	selectivity ratio	> 91
COc1ccc(-c2cc(C(F)(F)F)c3c(N)c(C(=O)NC45CC(C4)C5)sc3n2)cc1	selectivity ratio	< 1
COc1ccc(-c2cc(C(F)(F)F)c3c(N)c(C(=O)NC45CC6CC(CC(C6)C4)C5)sc3n2)cc1	selectivity ratio	< 91
COc1ccc(-c2cc(C(F)(F)F)c3c(N)c(C(=O)NC(C)c4ccccc4)sc3n2)cc1 (centres undefined)	selectivity ratio	83

Query block: What does the record list as selectivity ratio for "COc1ccc(-c2cc(C(F)(F)F)c3c(N)c(C(=O)NCC45CC6CC(CC(C6)C4)C5)sc3n2)cc1" ?
Result block: < 71

Query block: What does the record list as selectivity ratio for "COc1ccc(-c2cc(C(F)(F)F)c3c(N)c(C(=O)Nc4cc(C)ccc4C)sc3n2)cc1" ?
Result block: < 1

Query block: What does the record list as selectivity ratio for "COc1ccc(-c2cc(C(F)(F)F)c3c(N)c(C(=O)NC4CC5(C4)CN(C(=O)OC(C)(C)C)C5)sc3n2)cc1" ?
Result block: < 1

---

Listing: IC50 at 3 days of selected molecules
- test_details: Cytotoxicity against human HepG2 cells assessed as cell growth inhibition incubated for 3 days by CellTiter-Glo reagent-based luminescence assay
- Type: toxicity
Give the value, in units of µM, as a plain number.

Record excerpt, results attached:
molecule	result_units	data_value
COc1ccc(-c2cc(C(F)(F)F)c3c(N)c(C(=O)NC45CC6CC(CC(O)(C6)C4)C5)sc3n2)cc1	µM	19
Nc1c(C(=O)NC23CC4CC(CC(C4)C2)C3)sc2nc(-c3ccc4c(c3)OCO4)cc(C(F)(F)F)c12	µM	81
COc1ccc(-c2cc(C(F)(F)F)c3c(N)c(C(=O)Nc4cccc(C)c4C)sc3n2)cc1	µM	44
COc1cccc(-c2cc(C(F)(F)F)c3c(N)c(C(=O)Nc4cccc(C)c4C)sc3n2)c1	µM	52
CCNC(=O)c1sc2nc(-c3ccc(Cl)cc3Cl)cc(C(F)(F)F)c2c1N	µM	36
COc1ccc(-c2cc(C(F)(F)F)c3c(N)c(C(=O)Nc4cccc(C)c4F)sc3n2)cc1	µM	42
COc1ccc(-c2cc(C(F)(F)F)c3c(N)c(C(=O)NCc4ccccc4)sc3n2)cc1	µM	88
COc1ccc(-c2cc(C(F)(F)F)c3c(N)c(C(=O)NCCc4ccccc4)sc3n2)cc1	µM	23
COc1ccc(-c2cc(C(F)(F)F)c3c(N)c(C(=O)NCc4ccccc4C)sc3n2)cc1	µM	23

From here, focus on the item given below.
Query block: What does the record list as IC50 at 3 days for COc1ccc(-c2cc(C(F)(F)F)c3c(N)c(C(=O)NC(C)c4ccccc4)sc3n2)cc1 (centres undefined) ?
Result block: 52

---

- test_details: Cytotoxicity against human HepG2 cells assessed as cell growth inhibition incubated for 3 days by CellTiter-Glo reagent-based luminescence assay
- Assay type: toxicity
Listing: IC50 at 3 days of selected molecules

Record excerpt, results attached:
molecule	IC50 at 3 days
COc1ccc(-c2cc(C(F)(F)F)c3c(N)c(C(=O)NC(C)C4CCCCC4)sc3n2)cc1 (stereo not given)	> 100 µM
Nc1c(C(=O)Nc2ccccc2F)sc2nc(-c3ccccc3)cc(C(F)(F)F)c12	> 100 µM
COc1ccc(-c2cc(C(F)(F)F)c3c(N)c(C(=O)Nc4cccc(C)c4C)sc3n2)cc1OC	42 µM
Nc1c(C(=O)NCc2ccc(F)cc2)sc2ncccc12	> 100 µM

Query block: What does the record list as IC50 at 3 days for "COc1ccc(-c2cc(C(F)(F)F)c3c(N)c(C(=O)NCC45CC6CC(CC(C6)C4)C5)sc3n2)cc1" ?
Result block: > 100 µM

Query block: What does the record list as IC50 at 3 days for "COc1ccc(-c2cc(C(F)(F)F)c3c(N)c(C(=O)Nc4cc(C)cc(C)c4)sc3n2)cc1" ?
Result block: 47 µM

Query block: What does the record list as IC50 at 3 days for "Nc1c(C(=O)NCc2ccccc2)sc2nc(-c3ccccc3)ccc12" ?
Result block: > 100 µM

Query block: What does the record list as IC50 at 3 days for "Nc1c(C(=O)N2CCCC2)sc2nc(-c3ccc4c(c3)OCO4)cc(C(F)(F)F)c12" ?
Result block: > 100 µM

Query block: What does the record list as IC50 at 3 days for "Nc1c(C(=O)NCc2ccc(F)cc2)sc2nc(-c3ccccc3)ccc12" ?
Result block: > 100 µM

Query block: What does the record list as IC50 at 3 days for "Cc1cccc(NC(=O)c2sc3nc(-c4ccc5c(c4)OCO5)cc(C(F)(F)F)c3c2N)c1C" ?
Result block: 46 µM

Query block: What does the record list as IC50 at 3 days for "COc1ccc(-c2cc(C(F)(F)F)c3c(N)c(C(=O)NCc4cccc(C)c4C)sc3n2)cc1" ?
Result block: 50 µM

Query block: What does the record list as IC50 at 3 days for "CN(C)C(=O)c1sc2nc(-c3ccccc3)ccc2c1N" ?
Result block: > 100 µM

Query block: What does the record list as IC50 at 3 days for COc1ccc(-c2cc(C(F)(F)F)c3cc(C(=O)NC(C)c4ccccc4)sc3n2)cc1 (stereo not given) ?
Result block: > 100 µM

Query block: What does the record list as IC50 at 3 days for "COc1ccc(-c2cc(C(F)(F)F)c3c(N)c(C(=O)Nc4cccc(C)c4OC)sc3n2)cc1" ?
Result block: > 100 µM

Query block: What does the record list as IC50 at 3 days for "COc1ccc(-c2cc(C(F)(F)F)c3c(N)c(C(=O)N4CCCCC4)sc3n2)cc1" ?
Result block: > 100 µM

Query block: What does the record list as IC50 at 3 days for "COc1ccc(-c2cc(C(F)(F)F)c3c(N)c(C(=O)NC45CC(C4)C5)sc3n2)cc1" ?
Result block: 36 µM

Query block: What does the record list as IC50 at 3 days for "COc1ccc(-c2cc(C(F)(F)F)c3c(N)c(C(=O)NC4COC4)sc3n2)cc1" ?
Result block: > 100 µM

Query block: What does the record list as IC50 at 3 days for "Cc1cccc(CNC(=O)c2sc3nc(-c4ccc5c(c4)OCO5)cc(C(F)(F)F)c3c2N)c1C" ?
Result block: 44 µM

Query block: What does the record list as IC50 at 3 days for "Cc1cccc(NC(=O)c2sc3nc(-c4cccs4)cc(C(F)(F)F)c3c2N)c1" ?
Result block: 32 µM

Query block: What does the record list as IC50 at 3 days for "COc1ccc(-c2cc(C(F)(F)F)c3c(N)c(C(=O)NCCSC)sc3n2)cc1" ?
Result block: > 100 µM

---

- System: Mycobacterium tuberculosis
- test_details: Antibacterial activity against wild type Mycobacterium tuberculosis H37Rv-LP DREAM8 strain expressing codon-optimized DsRed assessed growth inhibition incubated for 5 days by fluorescence spectrophotometric assay
- Assay type: functional
- test_conditions: H37Rv-LP DREAM8, 120 h, time 5 day
Listing: IC90 of selected molecules

Record excerpt, results attached:
molecule	IC90
Cc1cccc(NC(=O)c2sc3nc(-c4cccs4)cc(C(F)(F)F)c3c2N)c1C	> 100 µM
COc1ccc(-c2cc(C(F)(F)F)c3c(N)c(C(=O)N4CC(C)OC(C)C4)sc3n2)cc1 (stereo not given)	> 50 µM

Query block: What does the record list as IC90 for "Cc1cccc(NC(=O)c2sc3nc(-c4ccccc4)cc(C(F)(F)F)c3c2N)c1C" ?
Result block: > 100 µM

Query block: What does the record list as IC90 for "Nc1c(C(=O)NCc2ccc(F)cc2)sc2ncccc12" ?
Result block: > 100 µM

Query block: What does the record list as IC90 for "Nc1c(C(=O)N2CCOCC2)sc2nc(-c3ccccc3)ccc12" ?
Result block: > 100 µM
